tested on: NBL01-1116 patient-derived neuroblastoma cells; test: RealTime-Glo MT cell viability assay; format: cell-based, Human; conditions: Homo sapiens, Neuroblastoma cell; NBL01-1116, 24 hours
Could you please report measured IC50 for the items listed next?
Give bare numbers, in µM.

[[record]]
item_smiles = "CN[C@@H](C)C(=O)N[C@H](C(=O)N1CCC[C@H]1C(=O)Nc1sc(-c2ncco2)nc1-c1ccccc1)C1CCCCC1"
assay_metric = "IC50"
experimental_value = 40


Next, consider the following compound.
**Q:** Which IC50 reading was recorded for the compound CN[C@@H](C)C(=O)N[C@H](C(=O)N1CCC[C@H]1c1nc(C(=O)c2ccc(F)cc2)cs1)C1CCCCC1 ?
**A:** 42

* * *

tested on: BE(2)-C; assay: RealTime-Glo MT cell viability assay; format: cell-based, Human; details: Homo sapiens, 48 hours
Assay metric: pIC50
One number for each entry, as −log10 of the molar value.

[[record]]
compound = "CN[C@@H](C)C(=O)N[C@H](C(=O)N1CCC[C@H]1C(=O)Nc1sc(-c2ncco2)nc1-c1ccccc1)C1CCCCC1 [CUDC-427]"
assay_metric = "pIC50"
experimental_value = 4.22


Next, consider the following compound.
**Q:** Which pIC50 reading was recorded for the compound CN[C@@H](C)C(=O)N[C@H](C(=O)N1CCC[C@H]1c1nc(C(=O)c2ccc(F)cc2)cs1)C1CCCCC1 [LCL161] ?
**A:** 4.37

* * *

System: NBL16-0118 patient-derived neuroblastoma cells
Assay: RealTime-Glo MT cell viability assay
Type: cell-based, Human
Details: Homo sapiens, Neuroblastoma cell; NBL16-0118, 24 hours
Method: Cell viability was measured in real time using RealTime-Glo MT Cell Viability Assay as according to manufacturer's instructions from Promega. Cells were seeded at 1 × 10^4 cells per well and treated with a range of doses of indicated antagonists, followed by continuous bioluminescence reading every 24 hours for 3 days using luminescent plate reader, Varioskan (SkanIT software). IC50 was determined using GraphPad Prism software. […]
Assay metric: IC50 (µM)
One number for each entry, in µM.

[[record]]
compound = "CN[C@@H](C)C(=O)N[C@H](C(=O)N1CCC[C@H]1C(=O)Nc1sc(-c2ncco2)nc1-c1ccccc1)C1CCCCC1 [CUDC-427]"
value_units = "µM"
experimental_value = 35


**Q:** Lab note: need IC50 with NBL16-0118 patient-derived neuroblastoma cells for entry CN[C@@H](C)C(=O)N[C@H](C(=O)N1CCC[C@H]1c1nc(C(=O)c2ccc(F)cc2)cs1)C1CCCCC1 [LCL161] , please look it up.
**A:** 34

* * *

Could you please report measured pIC50 for the items listed next?
System: NB1
Assay: RealTime-Glo MT cell viability assay
Type: cell-based, Human
Conditions: Homo sapiens; NB1, 48 hours
Description: Cell viability was measured in real time using RealTime-Glo MT Cell Viability Assay as according to manufacturer's instructions from Promega. Cells were seeded at 1 × 10^4 cells per well and treated with a range of doses of indicated antagonists, followed by continuous bioluminescence reading every 24 hours for 3 days using luminescent plate reader, Varioskan (SkanIT software). IC50 was determined using GraphPad Prism software. […]
Give bare numbers, as −log10 of the molar value.

[[record]]
item_smiles = "CN[C@@H](C)C(=O)N[C@H](C(=O)N1CCC[C@H]1c1nc(C(=O)c2ccc(F)cc2)cs1)C1CCCCC1"
assay_metric = "pIC50"
experimental_value = 4.33


Next, consider the following compound.
**Q:** Which pIC50 reading was recorded for the compound CN[C@@H](C)C(=O)N[C@H](C(=O)N1CCC[C@H]1C(=O)Nc1sc(-c2ncco2)nc1-c1ccccc1)C1CCCCC1 ?
**A:** 4.42

* * *

system: KELLY; assay: RealTime-Glo MT cell viability assay; assay type: cell-based, Human; conditions: Homo sapiens, 24 hours
Assay metric: IC50

// solved cases for IC50 follow
[[record]]
item_smiles = "CN[C@@H](C)C(=O)N[C@H](C(=O)N1CCC[C@H]1c1nc(C(=O)c2ccc(F)cc2)cs1)C1CCCCC1"
assay_metric = "IC50"
experimental_value = "48.2 µM"

[[record]]
item_smiles = "CN[C@@H](C)C(=O)N[C@H]1CN(C(=O)CC(C)C)CC[C@H]2CC[C@@H](C(=O)NC(c3ccccc3)c3ccccc3)N2C1=O"
assay_metric = "IC50"
experimental_value = "91 µM"


Next, consider the following molecule.
**Q:** Which IC50 reading was recorded for the molecule CN[C@@H](C)C(=O)N[C@H](C(=O)N1CCC[C@H]1C(=O)Nc1sc(-c2ncco2)nc1-c1ccccc1)C1CCCCC1 ?
**A:** 32.5 µM

* * *

test system: NB1; experiment: RealTime-Glo MT cell viability assay; format: cell-based, Human; conditions: Homo sapiens; NB1, 72 hours
Could you please report measured pIC50 for the items listed next?
Numbers only, as −log10 of the molar value.

// each listed molecule needs a value for pIC50
1. CN[C@@H](C)C(=O)N[C@H](C(=O)N1CCC[C@H]1c1nc(C(=O)c2ccc(F)cc2)cs1)C1CCCCC1 [LCL161]
2. CN[C@@H](C)C(=O)N[C@H]1CN(C(=O)CC(C)C)CC[C@H]2CC[C@@H](C(=O)NC(c3ccccc3)c3ccccc3)N2C1=O [Debio 1143]
3. CN[C@@H](C)C(=O)N[C@H](C(=O)N1CCC[C@H]1C(=O)Nc1sc(-c2ncco2)nc1-c1ccccc1)C1CCCCC1 [CUDC-427]

**A:**
[4.56, 4.19, 4.43]

* * *

Tested on: BE(2)-C
Experiment: RealTime-Glo MT cell viability assay
Type: cell-based, Human
Conditions: Homo sapiens, 72 hours
Description: Cell viability was measured in real time using RealTime-Glo MT Cell Viability Assay as according to manufacturer's instructions from Promega. Cells were seeded at 1 × 10^4 cells per well and treated with a range of doses of indicated antagonists, followed by continuous bioluminescence reading every 24 hours for 3 days using luminescent plate reader, Varioskan (SkanIT software). IC50 was determined using GraphPad Prism software. […]
Assay metric: pIC50
One number for each entry, as −log10 of the molar value.

[[record]]
item_smiles = "CN[C@@H](C)C(=O)N[C@H](C(=O)N1CCC[C@H]1C(=O)Nc1sc(-c2ncco2)nc1-c1ccccc1)C1CCCCC1"
experimental_value = 4.25


**Q:** Which pIC50 reading was recorded for the compound CN[C@@H](C)C(=O)N[C@H](C(=O)N1CCC[C@H]1c1nc(C(=O)c2ccc(F)cc2)cs1)C1CCCCC1 ?
**A:** 4.49

FYI, the data here is from paper PMC10681007.
